- ASSAY PROCEDURE: BBB permeability assay, plasma and brain LC-MS/MS after oral administration;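 note: oral dosing solution 2 mg/mL in saline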
- Assay type: in vivo, rat
- CONDITION PARAMETERS: male, SD, rat, plasma, oral, 2 mg/mL, time 0:30:00; individual replicates; read-out: Plasma
TEST READOUT: concentration at 0.5 h (ng/mL)
Give your result in ng/mL as a bare value.

Requested read-out: concentration at 0.5 h. Entry: CCN1CCN(c2cc(N3CCN(CC)CC3)nc(NCCNc3ccnc4cc(Cl)ccc34)n2)CC1 [4A7C-301]
0

====

- STUDY SYSTEM: Nurr1-LBD (Mus musculus, UniProt Q06219)
- Construct: transfected with pCMV-fNurr1, pGAL-Nurr1(LBD), pGAL-Nor1(LBD) or pGAL-Nur77(LBD) and reporter construct; expressed in transfected cells; host or cells: SK-N-BE(2)C (human neuroblastoma), N27-A (rat dopaminergic), MN9D (murine dopaminergic)
- Sequence (Q06219 360-595 limits assumed): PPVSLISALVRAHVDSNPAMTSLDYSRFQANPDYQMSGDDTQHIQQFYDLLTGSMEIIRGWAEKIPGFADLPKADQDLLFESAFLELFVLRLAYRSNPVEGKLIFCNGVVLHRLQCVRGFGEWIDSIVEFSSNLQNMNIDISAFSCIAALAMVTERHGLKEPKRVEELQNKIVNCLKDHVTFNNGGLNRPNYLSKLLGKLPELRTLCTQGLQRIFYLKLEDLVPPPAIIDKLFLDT
- ASSAY PROCEDURE: Luciferase reporter assay, Nurr1-LBD, SK-N-BE(2)C cells
- Assay type: cell-based
- CONDITION PARAMETERS: Nurr1 reporter assays
TEST READOUT: Nurr1 activation (in words)

Fill in the recorded Nurr1 activation (in words) for this compound, with Nurr1-LBD (Mus musculus, UniProt Q06219) as test system: `CCN1CCN(c2cc(N3CCOCC3)nc(NCCNc3ccnc4cc(Cl)ccc34)n2)CC1`
good Nurr1 activities

Fill in the recorded Nurr1 activation (in words) for this compound, with Nurr1-LBD (Mus musculus, UniProt Q06219) as test system: `CCN1CCN(c2cc(N3CCN(C)CC3)nc(NCCNc3ccnc4cc(Cl)ccc34)n2)CC1`
good Nurr1 activities

Fill in the recorded Nurr1 activation (in words) for this compound, with Nurr1-LBD (Mus musculus, UniProt Q06219) as test system: `CCN1CCN(c2cc(N3CCCCC3)nc(NCCNc3ccnc4cc(Cl)ccc34)n2)CC1`
good Nurr1 activities

====

For each entry below, report its EC50 value.
- STUDY SYSTEM: Nurr1-LBD (Mus musculus, UniProt Q06219)
- Construct: transfected with pCMV-fNurr1, pGAL-Nurr1(LBD), pGAL-Nor1(LBD) or pGAL-Nur77(LBD) and reporter construct; expressed in transfected cells; host or cells: SK-N-BE(2)C (human neuroblastoma), N27-A (rat dopaminergic), MN9D (murine dopaminergic)
- ASSAY PROCEDURE: Luciferase reporter assay, Nurr1-LBD, N27-A cells
- Assay type: cell-based
- CONDITION PARAMETERS: Supplementary Fig. 1d,e

Requested read-out: EC50. Entry: CCN(CC)CCCC(C)Nc1ccnc2cc(Cl)ccc12 (centres unmarked)
~10 µM

Requested read-out: EC50. Entry: `CCN1CCN(c2cc(N3CCN(CC)CC3)nc(NCCNc3ccnc4cc(Cl)ccc34)n2)CC1`
~0.2 µM

====

- ASSAY PROCEDURE: BBB permeability assay, plasma and brain LC-MS/MS after oral administration;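 note: oral dosing solution 2 mg/mL in saline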
- Assay type: in vivo, rat
- CONDITION PARAMETERS: male, SD, rat, brain, oral, 2 mg/mL, time 00:15:00; individual replicates; read-out: Brain
TEST READOUT: concentration at […] (ng/g)
Give your result in ng/g as a bare value.

Requested read-out: concentration at […]. Entry: `CCN1CCN(c2cc(N3CCN(CC)CC3)nc(NCCNc3ccnc4cc(Cl)ccc34)n2)CC1`
0
